Entries and their Stability values follow.
Experiment: Chemical stability of the compound in 0.01 M PBS assessed as compound remaining at pH 7.4 by HPLC analysis; note: time not given here
Settings: buffer
measurement-name: Stability (%)

structure=CC(C)NC(=O)Oc1cccc(-c2ccccc2)c1 unit_text=% reading=34.6
structure=O=C(NCc1ccccc1)Oc1cccc(-c2ccccc2)c1 unit_text=% reading=22.7
structure=CCCCCCNC(=O)Oc1cccc(-c2ccccc2)c1 unit_text=% reading=46.7
